System: PPARg:RXRa 270nM:90nM, anti-RXR (NR concentration 270 nM, RXRa partner concentration 90 nM)
Assay: PBM binding z-score (relative to random genomic background probes); higher = stronger binding; sequences stand for … in GC…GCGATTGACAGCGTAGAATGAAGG
// reported PBM binding z-score for each item listed
# respond with the number and nothing more

Use these answered entries as a reference point.
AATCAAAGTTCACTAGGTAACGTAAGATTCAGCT	4.91
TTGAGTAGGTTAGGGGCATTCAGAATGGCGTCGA	2.8

Please report the recorded PBM binding z-score for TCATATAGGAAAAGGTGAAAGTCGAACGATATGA .
3.09

Then this sequence: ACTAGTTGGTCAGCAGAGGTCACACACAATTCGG
3.79

Then this sequence: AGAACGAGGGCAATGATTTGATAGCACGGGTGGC
0.787

Then this sequence: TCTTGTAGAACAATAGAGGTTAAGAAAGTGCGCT
1.7

Then this sequence: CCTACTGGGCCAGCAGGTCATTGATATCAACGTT
2.84

Then this sequence: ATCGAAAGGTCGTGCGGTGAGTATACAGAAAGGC
3.58

Then this sequence: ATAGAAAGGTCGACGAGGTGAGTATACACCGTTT
2.81

Then this sequence: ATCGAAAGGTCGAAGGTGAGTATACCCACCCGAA
5.13

Then this sequence: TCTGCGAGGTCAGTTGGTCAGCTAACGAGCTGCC
3.5

Then this sequence: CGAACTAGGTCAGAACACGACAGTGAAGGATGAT
4.53

Attribution: the supplement of paper PMC6555819
